- testSystem: µ opioid receptor of the guinea pig isolated ileum (guinea pig, UniProt P97266 1-98)
- Sequence (P97266 whole entry): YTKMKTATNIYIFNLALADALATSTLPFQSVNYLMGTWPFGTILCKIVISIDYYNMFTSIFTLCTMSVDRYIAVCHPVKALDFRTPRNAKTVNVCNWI
- testDetails: cell-based or functional assay
Bridge positions count the residues as written; N and C are the ends. Square brackets hold non-standard residues; d marks the D form. Ends that are not written are not given here. * marks the point of attachment. NMeBn(CF3)2 = C-terminal N-methyl bis(trifluoromethyl)benzyl amide; Glc = O-glucosyl on Ser side chain (Ser(OGlu)/Ser(OGlc)); NH(3,5-(CF3)2-benzyl) = FC(F)(F)c1cc(CN*)cc(C(F)(F)F)c1; OBzl(3,5-(CF3)2) = FC(F)(F)c1cc(CO*)cc(C(F)(F)F)c1; NH‑Bn(CF3)2 = C-terminal Bn(CF3)2 amide; Dmt = Cc1cc(O)cc(C)c1C[C@H](N)C(=O)O; Nle = CCCC[C@H](N)C(=O)O; NHBn = c1ccc(CN*)cc1; OBn = c1ccc(CO*)cc1
reportedEndpoint: GPI/LMMP opioid(mu) agonist IC50 (nM)

>>> quantitativereadout("Y[dA]GF[Nle]PS(Glc)W-{NH‑Bn(CF3)2} [TyrDAlaGlyPheNleProSer(OGlu)TrpNHBn(CF3)2 (TY041)]")
517
>>> quantitativereadout("YAGFMPLW (D-Ala at 2; Met(O) (oxidized methionine) at 5; C-terminal O-3,5-Bn(CF3)2 ester) [TyrDAlaGlyPheMet(O)ProLeuTrpOBn(CF3)2 (TY023)]")
154
>>> quantitativereadout("Y[dA]GFSPLW-{NH(3,5-(CF3)2-benzyl)} (not fully specified (residue 5); printed as TyrDAlaGlyPheSer(OGlu)ProLeuTrpNHBn(CF3)2) [TyrDAlaGlyPheSer(OGlu)ProLeuTrpNHBn(CF3)2 (TY042)]")
1890
>>> quantitativereadout("[Dmt][dA]GFMPLW-{OBzl(3,5-(CF3)2)} [DmtDAlaGlyPheMetProLeuTrpOBn(CF3)2 (TY033)]")
100
>>> quantitativereadout("[Dmt][dA]GFMPLW-NHBn [DmtDAlaGlyPheMetProLeuTrpNHBn (TY034)]")
11.4
>>> quantitativereadout("YAGFXPLW (D-Ala at 2; Nle (norleucine) at 5 (X); C-terminal O-3,5-Bn(CF3)2 ester) [TyrDAlaGlyPheNleProLeuTrpOBn(CF3)2 (TY018)]")
372
>>> quantitativereadout("Y[dC]GF[dC]PLW-{NH(3,5-(CF3)2-benzyl)} (disulfide 2-5) [Tyr[DCysGlyPheDCys]ProLeuTrpNHBn(CF3)2 (TY037)]")
284
>>> quantitativereadout("YAGFXPLW (D-Ala at 2; Nle at 5 (X); C-terminal NH-Bn(CF3)2 amide) [TyrDAlaGlyPheNleProLeuTrpNHBn(CF3)2 (TY045)]")
463
>>> quantitativereadout("Y[dA]GFGPLW-{OBzl(3,5-(CF3)2)} [TyrDAlaGlyPheGlyProLeuTrpOBn(CF3)2 (TY006)]")
384
>>> quantitativereadout("Y[dA]GFMPLW-OH [TyrDAlaGlyPheMetProLeuTrpOH (TY043)]")
272
>>> quantitativereadout("Y[dC]GF[Nle]PCW-{NH(3,5-(CF3)2-benzyl)} (disulfide 2-7, also called [D-Cys2, Cys7]TY027) [Tyr[DCysGlyPheNleProCys]TrpNHBn(CF3)2 (TY035)]")
1010
>>> quantitativereadout("Y[dA]GFMPLW-OBn [TyrDAlaGlyPheMetProLeuTrpOBn (TY029)]")
22.2
>>> quantitativereadout("Y[dA]GFMPLW-{NMeBn(CF3)2} [TyrDAlaGlyPheMetProLeuTrpNMeBn(CF3)2 (TY028)]")
971
>>> quantitativereadout("Y[dA]GFLPLW-{OBzl(3,5-(CF3)2)} [TyrDAlaGlyPheLeuProLeuTrpOBn(CF3)2 (TY004)]")
341
>>> quantitativereadout("[Dmt][dA]GF[Nle]PS(Glc)W-{NH‑Bn(CF3)2} [DmtDAlaGlyPheNleProSer(OGlu)TrpNHBn(CF3)2 (TY056)]")
24.9
>>> quantitativereadout("[Dmt][dA]GFMPLW-{NH(3,5-(CF3)2-benzyl)} [DmtDAlaGlyPheMetProLeuTrpNHBn(CF3)2 (TY032)]")
18.6
>>> quantitativereadout("Y[dA]GFMPLW-{OBzl(3,5-(CF3)2)} [TyrDAlaGlyPheMetProLeuTrpOBn(CF3)2 (TY005)]")
359
>>> quantitativereadout("Y[dA]GFMPLW-NHBn [TyrDAlaGlyPheMetProLeuTrpNHBn (TY025)]")
61.1
>>> quantitativereadout("Y[dA]GFMPLW-{NH(3,5-(CF3)2-benzyl)} [TyrDAlaGlyPheMetProLeuTrpNHBn(CF3)2 (TY027)]")
488

These entries and their values trace back to patent US8026218.
